method summary: amyloid nucleation score (Sup35N fusion, yeast selection) (log enrichment); library NNK2; higher = more nucleation; inactive = no reads after selection;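 note: zero at mode of non-aggregating sequences after 7 days selection at 30°C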
outcome measure: amyloid nucleation score

- SWLYIQFFNLVLKTIVGLGV: 0.026
- WRQLRSPVYRPYCL: -0.124
- PEFGTDIPKSRRRKEGCRGG: 0.717
- IRESGVYTNLYSVVRVEEKT: 0.012
- MAESELQICMFYTMGCWDMV: -0.165
- RYYHLCAI: 0.289
- KLPIRLMTCASNFNLGNCWL: 6
- FGYHGSYMWYAFQGHYNKGY: 0.743
- GYYCDYSNTSRATRNMASKR: -0.719
- HGASSVAFNLLLSCVSWVGC: 7.47
- TSYSTPRMGPLTPRLSSG: 0.388
- MLFNLYISTSTLVDRS: 1.23
- CLNPFDSYGTSYCKCWWSAT: -0.451
- SVVRTRTRTVRVMETWISVW: 0.237
- SSMSNIEE: -1.15
- VFWSGAILLLAKCIGGMSIL: -0.47
- CVMIESLKVFISPWLASRIR: -0.291
- CDFSSVTD: -0.357
- NSFTLKCSKGVGYKALHLGT: 2.9
- PCERPFERFLVLNRFSDSST: 0.183
- LIFGAKLESGYASVEFSDSD: -0.347
- PARAKRLTAL: -0.207
- ANMLRWLNFETFAVSRNLAI: 0.009
- WLHTTFSRSICSISIHRALE: -0.07
- YDLGLKFNSHLATWGGFYHW: -0.746
- YAWKNPYSCWICR: -0.174
- DHRIWKAAREVVLVCHL: 0.629
- RLLALLGSCYWAGLDVSARI: 3.36
- HNLEWKNRNQTWSSLTPIVW: 0.384
- IRNQWMQVSQVFSVSRAVET: 0.369
- GEGQNEVATHLYCQLAILPV: 0.28
- VRPMLGGSNRLHFSMVFDDD: 5.96
- SWWYSKELKSRSAILATMMK: -0.151
- ARVIECLHGRN: -0.147
- GGNTVSHQK: -0.427
- DMRFYMVLA: 4.94
- KYCCWLRCGLIYNWGGNQDV: 5.14
- FHTNCYKIMMSGRHFHVSFD: 8.93
- KSTATSYVMPK: -0.072
- VFIVYLWWTLRSWHIRVLIS: -0.52
- RCFMGVA: 0.276
- RATKGAPN: 0.858
- SMLESNFRGFFYQ: 2.56
- CCVVYF: 9.64
- VFGWSVRFNYYIFMSMANDV: 3.62
- EILTNQYFCRLWVMGTFYID: -1.19
- VVIILNDTNFLMINMVQRVM: 4.33
- SLKANYGWLISNAWDMFHLG: -0.467
- EWRGMLLVSTRLVKDIVR: -0.553
- PCIFFMRFYFRT: -0.078
- YTFKYLSRMYLHYSVKGMWL: 0.325
- AMSECQHKMQWAAFSVFPGQ: 5.91
- RCSSRPCDLCVTEWIRRMEG: 0.357
- ALYFVIQLPV: -0.677
- GGMGHVFITCWGYVYIDYLV: 7.21
- VRSWTGPSEVQNCKSEFSGA: 0.731
- YAQWYDCTSSAEKRYKKVLS: -0.473
- STSSKVGVEAYTRDDRHLLS: 1.01
- IYKQLMVCHKCSDSAVTGYQ: 6.14
- HLNVKLKQVKDGQPCLMRLA: 1.67
- HLTEFNNRRRLGTDLAGVGN: 0.109
